These data points were gathered from PubChem BioAssay (NCATS).

Assay: Stat Signaling Pathway (AID 446);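 note: ME-180 cervical cancer cells given 40 pM IL-6 alongside compound; SIE-controlled beta-lactamase reporter measured as 460/530 nm FRET emission ratio; % is set by controls: 0 for no effect and ±100 for the full control effect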
Conditions: ME-180 SIE beta-lactamase reporter, IL-6 stimulated, 5 h; at 17.2 µM (top of the series) unless noted
Inconclusive results are not listed. Calls of active or inactive are those of the source. Calls come from the whole dose curve; as a rule, active = well fitted curve in either direction with a large enough effect (not every such curve was filed as active); inconclusive = small, poorly fitted or top-dose-only effect, or another doubt; inactive = flat fitted curve, though single readings scatter.
Consider the following molecules and their measured activity, negative = inhibition readings.

O=C(NC1CCS(=O)(=O)C1)c1c(NC(=O)C2COc3ccccc3O2)sc2c1CCCC2 (stereo not drawn)    -9.79% (inactive)
CCOC(=O)CSc1nc(C)c(C(C)=O)cc1C#N    6.11% (inactive)

Q. Tell me activity, negative = inhibition reported for COc1cccc(C(=O)OC2CCCN(C)C2)c1 (stereo not drawn)
A. 4.49% (inactive)

Q. Complete the entry with activity, negative = inhibition for O=C(NCc1ccccc1)/C(=N\O)c1ccccc1
A. 3.38% (inactive)

Q. Please list activity, negative = inhibition recorded for the molecule CCOc1nnnc2c1sc1nc(N3CCOCC3)c3c(c12)CC(C)(C)OC3
A. -9.58% (inactive)

Q. Assign activity, negative = inhibition to the following record: NS(=O)(=O)c1ccc(-c2ccc(C=NC3CCS(=O)(=O)C3)o2)cc1 (stereo not drawn)
A. -5.15% (inactive)

Q. Indicate its recorded activity, negative = inhibition; the molecule in question is COCCCN1C(=O)C(O)=C(C(=O)c2ccco2)C1c1ccc(Br)cc1 (stereo not drawn)
A. -8.56% (inactive)

Q. Respond only with activity, negative = inhibition recorded for C=CCn1c(SCC(=O)NC23CC4CC(CC(C4)C2)C3)nc(O)cc1=O
A. -2.84% (inactive)

---

System: PAD
Assay: qHTS profiling for inhibitors of Plasmodium falciparum proliferation (AID 504749); note: nearly all actives have a fitted effect of over 60% in size; note: potency is the fitted concentration of half-maximal effect
Conditions: P. falciparum in erythrocytes, SYBR Green DNA, 72 h; series mostly up to 28.7 µM
Inconclusive results are not listed. Active and inactive are the calls of the source. Calls follow the shape of the dose curve; as a rule, active = well fitted inhibition curve with a large enough effect; inconclusive = small, poorly fitted or top-dose-only effect; inactive = flat fitted curve, though single readings scatter.
measuredMetric: Potency

CCCC[C@H](O)c1ccccc1    inactive
CC(C)C[C@@H](NC(=O)[C@@H](Cc1ccccc1)NC(=O)c1cnccn1)B(O)O    141 nM (active)
Cn1cc(C(=O)[C@@H]2CCc3[nH]cnc3C2)c2ccccc21    inactive

---

Test system: SC27B
Assay: qHTS profiling for inhibitors of Plasmodium falciparum proliferation (AID 504749); note: nearly all actives have a fitted effect of over 60% in size
Conditions: P. falciparum in erythrocytes, SYBR Green DNA, 72 h; series mostly up to 28.7 µM
Inconclusive results are not listed. Active and inactive are the calls of the source. Calls follow the shape of the dose curve; as a rule, active = well fitted inhibition curve with a large enough effect; inconclusive = small, poorly fitted or top-dose-only effect; inactive = flat fitted curve, though single readings scatter.
Give one outcome, nothing more. List: active, inactive

Use these answered entries as a reference point.
C[C@@H]1C(SC2Cn3cnc[n+]3C2)=C(C(=O)[O-])N2C(=O)[C@H]([C@@H](C)O)[C@@H]12 (some centres undefined)    inactive
NC(CSSCC(N)C(=O)O)C(=O)O (centres undefined)    inactive
C[C@H](CN1c2ccccc2Sc2cccnc21)N(C)C    active

Next compound, please.
Q. For C=C1CC[C@H](O)C/C1=C/C=C1\CCC[C@]2(C)[C@@H]([C@H](C)CC[C@@H](O)C(C)(C)O)CC[C@@H]12 , what call appears in the results of this test?
A. active

---

Test system: 7G8
Test: qHTS profiling for inhibitors of Plasmodium falciparum proliferation (AID 504749); note: nearly all actives have a fitted effect of over 60% in size
Details: P. falciparum in erythrocytes, SYBR Green DNA, 72 h; series mostly up to 28.7 µM
Records with an inconclusive call do not appear. Active and inactive are the calls of the source. Calls come from the whole dose curve; as a rule, active = well fitted inhibition curve with a large enough effect; inconclusive = small, poorly fitted or top-dose-only effect; inactive = flat fitted curve, though single readings scatter.
Tick one outcome: yes (1) for active, no (0) for inactive

OC[C@@H](O)C(O[C@@H]1O[C@@H](CO)[C@H](O)[C@H](O)[C@H]1O)[C@H](O)[C@@H](O)CO (some centres undefined)    no (0)

Q. So what was the verdict on C=CCn1c(=O)n(C2OC(CO)C(O)C2O)c2nc(N)[nH]c(=O)c21 (centres undefined) in this test?
A. no (0)

Q. Returns: the outcome recorded for CCCC[C@H](O)c1ccccc1 in this assay.
A. no (0)

Q. How did this test come out for C[n+]1c2cc(N)ccc2cc2ccc(N)cc21 ?
A. yes (1)

Q. Field: outcome | Entry: CO[C@H]1OC2O[C@@]3(C)CC[C@H]4[C@H](C)CC[C@@H]([C@H]1C)[C@@]24OO3 (some centres undefined)
A. yes (1)

Q. Could you kindly confirm the outcome this assay logged for Cc1onc(-c2c(F)cccc2Cl)c1C(=O)NC1C(=O)N2C1SC(C)(C)C2C(=O)O (centres undefined) ?
A. no (0)

Q. How did this test come out for CO/N=C(/C(=O)N[C@@H]1C(=O)N2C(C(=O)O)=C(C[n+]3ccc(N)n3CCO)CS[C@H]12)c1csc(N)n1 ?
A. no (0)

Q. Identify the outcome logged in this assay for the molecule shown: C=C1CC2C3C=C(C)C4=CC(=O)CCC4(C)C3CCC2(C)[C@@]1(OC(C)=O)C(C)=O (some centres undefined)
A. yes (1)

---

Test: AP1 Signaling Pathway (AID 357);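 note: ME-180 reporter cells stimulated with EGF at its EC50 level; % is set by controls: 0 for no effect and ±100 for the full control effect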
Conditions: ME-180 AP-1-bla reporter, EGF-induced, beta-lactamase ratio, 5 h; at 17.2 µM (top of the series) unless noted
Records with an inconclusive call do not appear.
measuredMetric: activity change, negative = inhibition (%)
Field format: number, assumed %, no unit text.

Oc1ccccc1CNn1cnnc1    -0.712
COCCCNC(=O)C(C#N)c1nc2ccccc2nc1N1CCCC1 (stereo not given)    5.84
CCN1CCN(c2nc3c(C)cccn3c(=O)c2/C=C(\C#N)S(=O)(=O)c2ccccc2)CC1    -5.82

Q. Determine from records and report activity change, negative = inhibition for COc1ccc(NC(=O)c2c(C)cc(=O)oc2C)c(OC)c1
A. 6.98

Q. Assign activity change, negative = inhibition to the following record: CN1CCc2c(C#N)c(N3CCCCC3)nc(N3CCOCC3)c2C1
A. 1.28

---

activity, negative = inhibition values, listed per item
Experiment: Stat Signaling Pathway (AID 446);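 note: ME-180 cervical cancer cells given 40 pM IL-6 alongside compound; SIE-controlled beta-lactamase reporter measured as 460/530 nm FRET emission ratio; % is set by controls: 0 for no effect and ±100 for the full control effect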
Conditions: ME-180 (cervical carcinoma) SIE beta-lactamase reporter, IL-6 stimulated, 5 h; at 17.2 µM (top of the series) unless noted
Results filed as inconclusive are left out. Activity calls are given as the source filed them. The call rests on the fitted dose curve; in most records, active means well fitted curve in either direction with a large enough effect (not every such curve was filed as active); inconclusive means small, poorly fitted or top-dose-only effect, or another doubt; inactive means flat fitted curve, though single readings scatter.

Q. Please report the measured activity, negative = inhibition for Cc1cc(/C(O)=C2\C(=O)C(=O)N(CCN(C)C)C2c2ccncc2)ccc1OCc1ccccc1 (configuration not stated)
A. 4.75% (inactive)

Q. Assign activity, negative = inhibition to the following record: CCOC(=O)c1[nH]c2ccc(Br)cc2c1NC(=O)CCN1CCN(C(=O)OCC)CC1
A. -26.2% (inactive)

Q. Provide only the value of recorded activity, negative = inhibition for Cc1ccc(-n2c(N)c(C(N)=O)sc2=S)cc1
A. -24.5% (inactive)

Q. Output activity, negative = inhibition of CCOC(=O)CC(=O)CSc1nc2c(cc1C#N)CCCCCC2
A. -11.8% (inactive)

Q. Give the reported activity, negative = inhibition for this compound. COc1ccc(NC(=O)Nc2cccc(C(=O)N3CCOCC3)c2)cc1OC
A. 0.00442% (inactive)

Q. Report measured activity, negative = inhibition; entry is Cc1nnc2n(-c3ccccc3)c(=O)c3c4c(sc3n12)CC(C)CC4 (configuration not stated)
A. -2.29% (inactive)

---

Experiment: qHTS profiling for inhibitors of Plasmodium falciparum proliferation (AID 504749); note: nearly all actives have a fitted effect of over 60% in size; note: potency is the fitted concentration of half-maximal effect
Settings: P. falciparum in erythrocytes, SYBR Green DNA, 72 h; parasite line A
Results filed as inconclusive are left out. Activity calls are given as the source filed them. The call rests on the fitted dose curve; in most records, active means well fitted inhibition curve with a large enough effect; inconclusive means small, poorly fitted or top-dose-only effect; inactive means flat fitted curve, though single readings scatter.
measuredMetric: Potency

Q. Please look at this molecule and report its Potency: C=CC1CN2CCC1CC2[C@@H](O)c1ccnc2ccc(OC)cc12 (stereo partly specified)
A. 50.1 nM (active)

Q. Give recorded Potency. C[N+]12CCCC[C@@H]1CCC(=C(c1cccs1)c1cccs1)C2 (stereo partly specified)
A. 10000 nM (active)

Q. Tell me Potency reported for COc1cccc2c1C(=O)c1c(O)c3c(c(O)c1C2=O)C[C@@](O)(C(=O)CO)C[C@@H]3OC1CC(N)C(O)C(C)O1 (stereo partly specified)
A. 2000 nM (active)

---

Target: Cytochrome P450 1A2 (Homo sapiens)
Test: p450-cyp1a2 (AID 410); note: potency is the fitted concentration of half-maximal effect
Conditions: recombinant CYP1A2, luciferin-ME demethylation, luminescence; series mostly up to 57 µM
Experimental: The P450 gene superfamily is involved in metabolism and the clearance of xenobiotics. This assay used human CYP1A2 to measure the demethylation of luciferin 6' methyl ether (Luciferin-ME; Promega-Glo) to luciferin. The luciferin is then measured by luminescence after the addition of a luciferase detection regeant. Luciferin-ME concentration in the assay was equal to its Km for CYP1A2. NCGC Assay Protocol Summary: […]
Results filed as inconclusive are left out. Active and inactive are the calls of the source. The call rests on the fitted dose curve.
measuredMetric: Potency

Some solved entries appear below for comparison.
COc1ccc2oc(-c3ccccc3)c(OC)c(=O)c2c1    0.501 µM (active)
O=c1cc(-c2ccccc2)oc2cc(O[C@H]3O[C@H](CO)[C@@H](O)[C@H](O)[C@@H]3O)c(O)c(O)c12    inactive
COC(=O)[C@H]1C[C@@H]1[C@H](NC(=O)c1cnccn1)c1ccccc1    15.8 µM (active)
COCCn1c(C(=O)N2CCCC2)cc2c1C[C@H]1CN(C(=O)c3ccccc3)[C@@](Cc3ccc(F)cc3)(C(=O)OC)[C@@H]21    31.6 µM (active)

Q. Name the recorded Potency of the item CCC/C=C(\CCC)C(NC(=O)c1ccc(C(=O)OC)cc1)c1ccc(C(=O)OC)cc1 (configuration not stated) in your answer.
A. inactive

Q. Report Potency, nothing else, for this compound: COC(=O)c1ccc(C(NC(=O)c2ccccc2)[C@]2(C)C[C@H]2C2CCCCC2)cc1 (some centres not stated)
A. inactive

Q. Hello, please tell me recorded Potency for this one: C[C@@H](C(=O)Nc1ccc2ccccc2c1)[C@@H]1C[C@@]1(C)[C@@H](NS(=O)(=O)c1ccc2ccccc2c1)c1ccccc1
A. 10 µM (active)
